# system: rabbit muscle actin (Oryctolagus cuniculus, UniProt P68135)
# Construct: Purified rabbit muscle actin (Cytoskeleton Inc., Denver, Mo.); purchased Cytoskeleton Inc; host or cells: rabbit muscle
# procedureText: In vitro bundling of actin by peptides (co-polymerization, differential centrifugation, SDS gel)
# Format: biochemical
# statedConditions: Tables 2 and 3; peptide co-polymerized with actin in vitro
measuredMetric: In vitro actin bundling activity

Below, 7 sequences whose answers are already recorded.
| querySequence | system | valueMeasured |
| --- | --- | --- |
| GIVRKWISRFEVWPYLKK (SS2 active peptide based on Zea mays SuSy 377- 392) | rabbit muscle actin (Oryctolagus cuniculus, UniProt P68135) | active |
| WISRFEVW (Small block of SS12 sequence required for less active synthetic peptide) [SMIN] | rabbit muscle actin (Oryctolagus cuniculus, UniProt P68135) | less active |
| GIVRKAISRFEVAPYL (SS15 less active synthetic peptide) | rabbit muscle actin (Oryctolagus cuniculus, UniProt P68135) | less active |
| GPTLKRTASTAFMNTTSKK (NR11 inactive synthetic peptide) [reference compound] | rabbit muscle actin (Oryctolagus cuniculus, UniProt P68135) | inactive |
| GIVRKWISRFEVWPYL (SS12 active synthetic peptide) | rabbit muscle actin (Oryctolagus cuniculus, UniProt P68135) | active |
| RRISSVEDKK (SP3 inactive synthetic peptide) [reference compound] | rabbit muscle actin (Oryctolagus cuniculus, UniProt P68135) | inactive |
| GRMRRIATVEMMKK (SP26 inactive synthetic peptide) [reference compound] | rabbit muscle actin (Oryctolagus cuniculus, UniProt P68135) | inactive |

Please look up its In vitro actin bundling activity: ILRVPFRTENGIVRK (SS11 inactive synthetic peptide)
inactive
